experiment: Maximum Tolerated Dose in preclinical animal trials, rats; settings: rat, in vivo
Ends that are not written are not given here.
Experimental Endpoint: MTD (mg/kg)
Number only, in mg/kg; omit the unit.

Problem: Entry YGRKKRRQRRRKLSSIESDV [Tat-NR2B9c] : reported MTD = ?
Solution: 100

----------
experiment: Maximum Tolerated Dose in preclinical animal trials, dogs; conditions: dog, in vivo
Ends that are not written are not given here.
Experimental Endpoint: MTD (mg/kg)
Number only, in mg/kg; omit the unit.

Problem: Entry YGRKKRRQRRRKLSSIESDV [Tat-NR2B9c] : reported MTD = ?
Solution: 12.5
